- system.under.test: NMDA receptor (Rattus norvegicus, UniProt P35439)
- Construct: After the rats were decapitated, the prefrontal cortex and hippocampus were rapidly separated on ice; from tissue; host or cells: SD male rat prefrontal cortex and hippocampus, crude synaptosomes
- protocol.description: NMDA receptor agonistic properties in rat crude synaptosomal proteins (maximum [3H]-MK-801 binding vs 1 mM glycine)
- Format: biochemical
- condition.label: maximum [3H]-MK-801 binding % relative to 1 mM glycine; 50 μM glutamic acid
Task for the reader: assign each of the following compounds its reported Maximum agonistic efficacy (%).
One number for each entry, in %.

# return Maximum agonistic efficacy (%) for each item in the list
1. CC(=O)N1CCC2(C1)N[C@H](C(=O)N[C@H](C(N)=O)[C@@H](C)O)CS2.Cl (stereo partly drawn)
2. Cl.NC(=O)[C@@H]1CSC2(CCN(C(=O)[C@@H](N)CO)CC2)N1
3. C[C@@H](O)[C@H](N)C(=O)N1CCC2(CC1)N[C@H](C(=O)N[C@H](C(N)=O)[C@@H](C)O)CS2.Cl
4. C[C@@H](O)[C@H](N)C(=O)N1CC2(C1)NCCS2.Cl
5. CC(C)(C)OC(=O)N1CC2(C1)NCCS2
6. CC(=O)N1CCC2(CC1)NCCS2

Result:
1: 39; 2: 12; 3: 63; 4: 32; 5: 45; 6: 52

Batch lookup, Maximum agonistic efficacy (%) per entry.
1. CC(C)[C@H](N)C(=O)N1CCSC12CNC2.Cl
2. Cl.N[C@@H](CO)C(=O)N1CCC2(CC1)NCCS2
3. C[C@@H](O)[C@H](N)C(=O)N1CCC2(C1)SCCN2C(=O)[C@@H](N)[C@@H](C)O.Cl (stereo partly drawn)

Result:
26
19
53

###

Exercise: state measured pIC50 for each of the compounds provided.
- system.under.test: NMDA receptor (Rattus norvegicus)
- Construct: After the rats were decapitated, the prefrontal cortex and hippocampus were rapidly separated on ice; from tissue; host or cells: SD male rat prefrontal cortex and hippocampus, crude synaptosomes
- protocol.description: Inhibition of [3H]-MK-801 binding to rat crude synaptosomes (receptor ligand binding assay)
One number for each entry, as −log10 of the molar value.

For orientation, consider the following solved cases.
CC(C)C(=O)N1CCSC12CNC2.Cl [A-093] : 9.32
CC(C)[C@H](N)C(=O)N1CCSC12CNC2.Cl [A-329] : 9.14

C[C@@H](O)[C@H](NC(=O)[C@@H]1CSC2(CNC2)N1)C(N)=O.Cl [A-370] has a reported pIC50 of 9.44

###

- system.under.test: NMDA receptor (Rattus norvegicus, UniProt P35439)
- Construct: After the rats were decapitated, the prefrontal cortex and hippocampus were rapidly separated on ice; from tissue; host or cells: SD male rat prefrontal cortex and hippocampus, crude synaptosomes
- protocol.description: Inhibition of [3H]-MK-801 binding to rat crude synaptosomes (receptor ligand binding assay)
- condition.label: affinity on NMDA; [3H]-MK-801 10 nM, rat prefrontal cortex and hippocampus crude synaptosomes; read-out: IC50
Provide the recorded pIC50 for the entries that follow.
Numbers only, as −log10 of the molar value.

CC(=O)N1CCSC12CN(C(=O)[C@@H](N)C(C)C)C2.Cl : 8.89
C[C@@H](O)[C@H](N)C(=O)N1CCC2(CC1)NCCS2.Cl : 9.05
C[C@@H](O)[C@H](N)C(=O)N1CCC2(C1)SCCN2C.Cl (stereo partly drawn) : 8.80
CC(C)CN1CCSC12CN(C(=O)[C@@H](N)[C@@H](C)O)C2.Cl : 9.35
CC(=O)N1CC2(C1)SCCN2C(=O)[C@@H](N)CC(N)=O.Cl : 9.25

Value sought for every listed compound: pIC50.
1. CC(C)C(=O)N1CCSC12CCN(C(=O)[C@@H](N)[C@@H](C)O)CC2.Cl
2. C[C@H](NC(=O)[C@@H]1CSC2(CN(C(=O)[C@@H](N)[C@@H](C)O)C2)N1)C(N)=O.Cl

Result:
1: 9.05; 2: 8.78

Provide each entry's pIC50 from the list below.
1. C[C@@H](O)[C@H](N)C(=O)N1CCCC2(C1)N[C@H](C(N)=O)CS2.Cl (stereo partly drawn)
2. CC(=O)N1CCC2(CC1)SCCN2C(C)=O
3. C[C@@H](O)[C@H](N)C(=O)N1CCCC2(C1)N[C@H](C(=O)N[C@H](C(N)=O)[C@@H](C)O)CS2.Cl (stereo partly drawn)
4. C[C@@H](O)[C@H](N)C(=O)N1CC2(C1)N[C@H](C(N)=O)CS2.Cl
5. CC(=O)N1CC2(C1)N[C@H](C(=O)N[C@@H](CO)C(N)=O)CS2
6. C[C@@H](O)[C@H](N)C(=O)N1CCC2(C1)SCCN2C(=O)[C@@H](N)[C@@H](C)O.Cl (stereo partly drawn)
7. Cl.N[C@@H](CO)C(=O)N1CC2(C1)SCCN2Cc1ccccc1

Result:
[9.49, 8.90, 9.36, 9.48, 9.39, 9.32, 9.37]

Hi, could you look up pIC50 for each item in my list?
1. Cl.NC(=O)[C@@H]1CSC2(CCN(C(=O)[C@@H](N)CO)CC2)N1
2. C[C@@H](O)[C@H](N)C(=O)N1CCC2(C1)N[C@H](C(=O)N1CCN(C)CC1)CS2.Cl (stereo partly drawn)
3. C[C@@H](O)[C@H](N)C(=O)N1CC2(C1)SCCN2C(=O)C(C)(C)C.Cl
4. C[C@@H](O)[C@H](N)C(=O)N1CCC2(C1)NCCS2.Cl (stereo partly drawn)

Result:
1: 9.46; 2: 9.18; 3: 9.32; 4: 9.60

###

- system.under.test: NMDA receptor (Rattus norvegicus, UniProt P35439)
- Construct: After the rats were decapitated, the prefrontal cortex and hippocampus were rapidly separated on ice; from tissue; host or cells: SD male rat prefrontal cortex and hippocampus, crude synaptosomes
- protocol.description: Inhibition of [3H]-MK-801 binding to rat crude synaptosomes (receptor ligand binding assay)
- condition.label: affinity on NMDA; [3H]-MK-801 10 nM, rat prefrontal cortex and hippocampus crude synaptosomes; read-out: IC50
measured.property: pIC50
Answers are plain numbers, as −log10 of the molar value.

C[C@@H](O)[C@H](N)C(=O)N1CCC2(CC1)N[C@H](C(=O)N[C@H](C(N)=O)[C@@H](C)O)CS2.Cl : 9.10
CC(C)[C@H](N)C(=O)N1CCSC12CN(C(=O)[C@@H](N)[C@@H](C)O)C2.Cl : 9.23
Cl.N[C@@H](CO)C(=O)N1CC2(C1)NCCS2 : 9.05
COC(=O)[C@@H]1CSC2(CCN(C(=O)[C@@H](N)[C@@H](C)O)CC2)N1.Cl : 9.06
CC(C)C(=O)N1CCSC12CCCN(C(=O)[C@@H](N)[C@@H](C)O)C2.Cl (some centres unmarked) : 8.78

Please state pIC50 for every compound in the list that follows.
1. CC(=O)N1CCC2(CC1)SCCN2C(=O)C(C)C
2. CC(C)(C)OC(=O)N1CC2(C1)NCCS2
3. CC(C)[C@H](N)C(=O)N1CC2(C1)N[C@H](C(N)=O)CS2.Cl

Result:
8.80
9.48
9.59

For each of the compounds below, note its pIC50.
1. C[C@@H](O)[C@H](N)C(=O)N1CCCC2(C1)SCCN2C(=O)[C@@H](N)[C@@H](C)O.Cl (some centres unmarked)
2. CC(=O)N1CCC2(CC1)NCCS2
3. CC(C)(C)OC(=O)N1CCC2(C1)NCCS2 (centres unmarked)
4. Cl.N[C@@H](CO)C(=O)N1CCC2(CC1)NCCS2
5. CC(C)C(=O)N1CCC2(CC1)SCCN2C(=O)[C@@H](N)[C@@H](C)O.Cl
6. C[C@@H](O)[C@H](N)C(=O)N1CCC2(C1)N[C@H](C(N)=O)CS2.Cl (some centres unmarked)
7. CC(C)C(=O)N1CC2(C1)N[C@H](C(N)=O)CS2

Result:
1. 9.54
2. 9.46
3. 9.46
4. 9.06
5. 9.07
6. 8.49
7. 9.05

# batch: return pIC50 for each of the 5 compounds below
1. CC(C)(C)OC(=O)N1CCC2(CC1)NCCS2
2. CC(=O)N1CCSC12CCCN(C(=O)[C@@H](N)[C@@H](C)O)C2.Cl (some centres unmarked)
3. CC(C)C(=O)N1CCSC12CN(C(=O)[C@@H](N)[C@@H](C)O)C2.Cl
4. C[C@@H](O)[C@H](N)C(=O)N1CCC2(CC1)N[C@H](C(=O)N1CCSCC1)CS2.Cl
5. CC(C)[C@H](N)C(=O)N1CCC2(CC1)N[C@H](C(N)=O)CS2.Cl

Result:
[9.46, 9.35, 9.01, 9.33, 9.60]

###

Assignment: determine reported Maximum agonistic efficacy (%) for the given compounds.
- system.under.test: NMDA receptor (Rattus norvegicus)
- Construct: After the rats were decapitated, the prefrontal cortex and hippocampus were rapidly separated on ice; from tissue; host or cells: SD male rat prefrontal cortex and hippocampus, crude synaptosomes
- protocol.description: NMDA receptor agonistic properties in rat crude synaptosomal proteins (maximum [3H]-MK-801 binding vs 1 mM glycine)
- Assay type: biochemical
- condition.label: maximum [3H]-MK-801 binding % relative to 1 mM glycine; 50 μM glutamic acid
Give bare numbers, in %.

Below, each entry is followed by its recorded Maximum agonistic efficacy (%) result.
CC(=O)N1CCSC12CCCN(C(=O)[C@@H](N)[C@@H](C)O)C2.Cl (stereo partly drawn) : 36
CC(=O)N1CCSC12CCN(C(=O)[C@@H](N)[C@@H](C)O)C2.Cl (stereo partly drawn) : 38
COC(=O)[C@@H]1CSC2(CCN(C(=O)[C@@H](N)[C@@H](C)O)CC2)N1.Cl : 13

List the reported Maximum agonistic efficacy (%) of each compound below.
1. CC(=O)N1CC2(C1)SCCN2C(C)=O
2. CC(=O)N1CCSC12CCN(C(=O)OC(C)(C)C)CC2

Result:
1: 33; 2: 56

Batch: Maximum agonistic efficacy (%) for all items listed.
1. CC(=O)N1CCC2(CC1)SCCN2C(=O)C(C)C
2. CN1CCN(C(=O)[C@@H]2CSC3(CCCN(C(=O)[C@@H](N)CO)C3)N2)CC1.Cl (stereo partly drawn)
3. CC(=O)N1CCC2(CC1)SCCN2C(C)=O

Result:
1: 38; 2: 59; 3: 41

Batch request: Maximum agonistic efficacy (%) for each of the following compounds.
1. C[C@@H](O)[C@H](N)C(=O)N1CC2(C1)N[C@H](C(N)=O)CS2.Cl
2. CC(C)C(=O)N1CC2(C1)N[C@H](C(N)=O)CS2
3. CC(=O)N1CC2(C1)SCCN2C(=O)[C@@H](N)CC(N)=O.Cl
4. CC(C)[C@H](N)C(=O)N1CCC2(CC1)N[C@H](C(N)=O)CS2.Cl
5. CC(=O)N1CCSC12CN(C(=O)[C@@H](N)C(C)C)C2.Cl
6. CC(=O)N1CCSC12CN(C(=O)[C@@H](N)[C@@H](C)O)C2.Cl
7. CC(C)[C@H](N)C(=O)N1CCC2(CC1)NCCS2.Cl
8. CC(=O)N1CCCC2(C1)SCCN2C(=O)C(C)C (stereo not drawn)

Result:
1. 21
2. 28
3. 32
4. 28
5. 48
6. 29
7. 28
8. 35

Provide Maximum agonistic efficacy (%) for all items below, preserving their order.
1. Cl.N[C@@H](CO)C(=O)N1CC2(C1)SCCN2Cc1ccccc1
2. C[C@@H](O)[C@H](N)C(=O)N1CCC2(C1)N[C@H](C(=O)N1CCN(C)CC1)CS2.Cl (stereo partly drawn)

Result:
46
57

Data origin: patent US20230348493A1
